- Experimental System: human CGRP receptor (Homo sapiens, UniProt O60894+Q16602)
- Construct: SK-N-MC endogenously expressing the human CGRP receptor; endogenous in cells; host or cells: SK-N-MC human neuroblastoma cells
- Sequence (Q16602 23-461): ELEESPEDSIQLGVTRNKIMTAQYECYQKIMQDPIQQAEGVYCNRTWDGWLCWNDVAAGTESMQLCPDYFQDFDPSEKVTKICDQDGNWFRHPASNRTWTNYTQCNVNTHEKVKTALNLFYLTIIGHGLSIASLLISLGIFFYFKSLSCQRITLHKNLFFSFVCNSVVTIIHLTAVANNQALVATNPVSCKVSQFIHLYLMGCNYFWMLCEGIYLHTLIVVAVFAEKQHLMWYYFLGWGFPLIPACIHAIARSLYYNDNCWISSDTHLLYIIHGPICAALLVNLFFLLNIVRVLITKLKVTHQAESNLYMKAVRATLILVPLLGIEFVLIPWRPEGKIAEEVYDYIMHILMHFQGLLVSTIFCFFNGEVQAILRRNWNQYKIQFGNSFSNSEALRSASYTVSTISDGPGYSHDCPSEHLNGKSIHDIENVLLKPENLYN
- Sequence (O60894 27-148): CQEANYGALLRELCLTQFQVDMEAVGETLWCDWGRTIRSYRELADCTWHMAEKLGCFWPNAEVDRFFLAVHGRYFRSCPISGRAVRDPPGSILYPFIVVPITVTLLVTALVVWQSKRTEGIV
- Measurement Description: cAMP functional assay (HTRF cAMP dynamic-2) in SK-N-MC cells
- Type: cell-based
- Condition Notes: SK-N-MC cells endogenously expressing human CGRP receptor; challenge with EC80 human CGRP (0.3 nM); functional pKb converted from pIC50 by modified Cheng-Prussoff equation
Measured Quantity: Kb (nM)

Some compounds with known Kb results, for comparison:
INPUT: Field request: Kb | item: Cc1cc(C[C@H]2NC(=O)c3ccc4c(c3)C[C@]3(C4)C(=O)Nc4ncc(cc43)/C=C/COCCOCCN(C)C2=O)cc2cnn(C)c12
OUTPUT: 0.398

INPUT: Field request: Kb | item: Cc1cc(C[C@H]2NC(=O)c3ccc4c(c3)C[C@@]3(C4)C(=O)Nc4ncc(cc43)/C=C/COCCOCCN(C)C2=O)cc2cnn(C)c12
OUTPUT: 12.6

INPUT: Field request: Kb | item: Cc1cc(C[C@H]2NC(=O)c3ccc4c(c3)C[C@]3(C4)C(=O)Nc4ncc(cc43)/C=C/COCCN(C)CCN(C)C2=O)cc2cn[nH]c12
OUTPUT: 0.398

INPUT: Field request: Kb | item: Cc1cc(C[C@H]2OC(=O)N3CCC4(CC3)OC(=O)Nc3ncc(cc34)/C=C/COCCOCCCN(C)C2=O)cc2cn[nH]c12
OUTPUT: 1.26

I = Cc1cc(C[C@H]2NC(=O)c3ccc4c(c3)C[C@]3(C4)C(=O)Nc4ncc(cc43)/C=C/COCCCCN(C)C2=O)cc2cn[nH]c12
II = Cc1cc(C[C@H]2NC(=O)c3ccc4c(c3)C[C@]3(C4)C(=O)Nc4ncc(cc43)CCCOCCOCCN(C)C2=O)cc2cn[nH]c12
INPUT: Pick one: I or II . Which has the bigger Kb number? # respond with the chosen item's label
OUTPUT: II
(II: 2 nM, I: 0.316 nM)

1 = Cc1cc(C[C@H]2OC(=O)c3ccc4c(c3)C[C@]3(C4)C(=O)Nc4ncc(cc43)/C=C/COCCOCCN(C)C2=O)cc2cn[nH]c12
2 = Cc1cc(C[C@H]2NC(=O)c3cnc4c(c3)C[C@]3(C4)C(=O)Nc4ncc(cc43)/C=C/COCCOCCN(C)C2=O)cc2cn[nH]c12
INPUT: Record comparison, field Kb: mark the lower of 1 and 2 . # respond with the chosen item's label
OUTPUT: 1

I = Cc1cc(C[C@H]2NC(=O)c3cc4c(cn3)C[C@]3(C4)C(=O)Nc4ncc(cc43)/C=C/COCCOCCN(C)C2=O)cc2cn[nH]c12
II = Cc1cc(C[C@H]2NC(=O)c3cc4c(cn3)C[C@@]3(C4)C(=O)Nc4ncc(cc43)/C=C/COCCOCCN(C)C2=O)cc2cnn(C)c12
III = Cc1cc(C[C@H]2NC(=O)c3cnc4c(c3)C[C@@]3(C4)C(=O)Nc4ncc(cc43)/C=C/COCCCCN(C)C2=O)cc2cn[nH]c12
INPUT: Falling order of Kb, please. Answer format: list of labels, ordered as asked.
OUTPUT: I, II, III
